- studyTarget: PIM1 (Homo sapiens)
- Sequence (P11309 whole entry): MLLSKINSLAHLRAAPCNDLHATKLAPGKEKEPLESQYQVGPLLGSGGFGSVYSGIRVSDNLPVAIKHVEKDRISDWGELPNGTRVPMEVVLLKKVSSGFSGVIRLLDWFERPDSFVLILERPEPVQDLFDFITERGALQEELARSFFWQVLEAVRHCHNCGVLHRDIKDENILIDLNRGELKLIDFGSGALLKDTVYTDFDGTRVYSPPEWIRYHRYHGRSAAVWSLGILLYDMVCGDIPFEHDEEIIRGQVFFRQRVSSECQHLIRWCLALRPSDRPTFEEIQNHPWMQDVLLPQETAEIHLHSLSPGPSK
- testProtocol: Binding/displacement assay with FA or TGLI readout
- Design: made in house
- conditionsUsed: KD toward PIM-1, as worded in text
pKd: −log10 of the molar value.
measureName: pKd

| compound | endpointResult |
| --- | --- |
| N=C(N)NCCC[C@@H](N)C(=O)N[C@H](CCCNC(=N)N)C(=O)NCC(=O)N[C@H](CCCNC(=N)N)C(=O)N[C@H](CCCCN)C(N)=O [PIM peptide, (D-Arg)2-Gly-D-Arg-D-Lys-NH2] | < 5.00 |

* * *

- studyTarget: PDGFRA (Homo sapiens, UniProt P16234)
- Sequence (P16234 24-1089): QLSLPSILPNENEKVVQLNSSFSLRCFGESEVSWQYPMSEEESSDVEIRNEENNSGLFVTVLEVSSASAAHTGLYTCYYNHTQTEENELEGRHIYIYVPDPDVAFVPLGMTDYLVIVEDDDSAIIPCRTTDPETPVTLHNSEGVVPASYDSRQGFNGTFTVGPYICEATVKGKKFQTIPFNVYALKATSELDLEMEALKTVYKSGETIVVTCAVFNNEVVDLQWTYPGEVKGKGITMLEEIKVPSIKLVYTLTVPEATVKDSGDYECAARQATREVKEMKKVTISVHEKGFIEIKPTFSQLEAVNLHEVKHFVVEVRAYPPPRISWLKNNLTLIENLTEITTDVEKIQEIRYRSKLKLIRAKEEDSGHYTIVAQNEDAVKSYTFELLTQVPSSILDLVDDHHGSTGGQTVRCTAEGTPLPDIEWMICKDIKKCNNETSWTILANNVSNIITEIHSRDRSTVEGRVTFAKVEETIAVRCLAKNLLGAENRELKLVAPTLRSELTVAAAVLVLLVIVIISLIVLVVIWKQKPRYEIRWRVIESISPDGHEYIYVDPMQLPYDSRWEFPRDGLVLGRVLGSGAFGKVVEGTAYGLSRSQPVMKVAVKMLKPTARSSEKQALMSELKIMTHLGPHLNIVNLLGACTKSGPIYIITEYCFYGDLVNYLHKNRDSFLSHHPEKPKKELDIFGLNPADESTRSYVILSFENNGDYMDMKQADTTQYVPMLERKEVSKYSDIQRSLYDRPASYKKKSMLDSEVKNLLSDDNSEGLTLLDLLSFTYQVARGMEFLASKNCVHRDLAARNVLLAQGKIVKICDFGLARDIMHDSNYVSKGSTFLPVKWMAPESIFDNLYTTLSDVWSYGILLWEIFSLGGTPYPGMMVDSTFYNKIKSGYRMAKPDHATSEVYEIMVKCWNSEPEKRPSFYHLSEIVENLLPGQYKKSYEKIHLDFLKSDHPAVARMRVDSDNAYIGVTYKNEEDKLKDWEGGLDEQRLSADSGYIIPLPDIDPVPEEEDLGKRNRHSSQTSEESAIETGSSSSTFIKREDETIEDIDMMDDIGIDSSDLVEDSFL
- testProtocol: Kinase profiling (radiometric filter-binding)
- Type: biochemical
- conditionsUsed: 1 µM inhibitor, read-out: Residual activity, %
- Procedure: Kinase selectivity profiling was performed using the commercial service provided by the MRC PPU International Centre for Kinase Profiling (Dundee, UK) using a radiometric filter-binding assay. Kinases used for analysis were of human origin. The ATP concentration applied for inhibition measurements was at or below the ATP KM value of the particular PK. […] Residual activities were expressed as the percentage of retained activity compared to the control without inhibitor.
Consider the following compounds and their measured remaining activity at 1 µM readings.
measureName: remaining activity at 1 µM (%)

| molecule | studyTarget | endpointResult |
| --- | --- | --- |
| N=C(N)NCCC[C@@H](NC(=O)CNC(=O)[C@@H](CCCNC(=N)N)NC(=O)[C@@H](CCCNC(=N)N)NC(=O)CCCCCCCNCc1nc2c(sc3cc(Br)cnc32)c(=O)[nH]1)C(=O)N[C@H](CCCCN)C(N)=O | PDGFRA (Homo sapiens, UniProt P16234) | 115 |
| N=C(N)NCCC[C@@H](NC(=O)CNC(=O)[C@@H](CCCNC(=N)N)NC(=O)[C@@H](CCCNC(=N)N)NC(=O)CCCCCCCNCc1nc2c(sc3ccc(Br)cc32)c(=O)[nH]1)C(=O)N[C@H](CCCCN)C(N)=O | PDGFRA (Homo sapiens, UniProt P16234) | 101 |
